Assay: compound effects on hepatocellular carcinoma cell viability – HepG2, calcein-AM fluorescence, 48 h, basal, profiling panel (AID 1164); further: test concentration not given here
Conditions: higher = more signal
EXPERIMENTAL_READOUT: z-score

input_smiles=NC(=O)NCC#Cc1ccc2c(c1)[C@]1(C(=O)N2)[C@H](C(=O)N2CCN(c3ncccn3)CC2)[C@H]2C(=O)O[C@H](c3ccccc3)[C@H](c3ccccc3)N2[C@@H]1c1ccc(O)cc1 experimental_readout=z-score data_value=-0.388
input_smiles=CCCN1C(=O)[C@@]2(Cc3ccccc31)N=C(c1ccc(OCCCO)cc1)O[C@H]2c1ccccc1 experimental_readout=z-score data_value=-1.1
input_smiles=COCC(=C=CC[C@H](O)c1ccc(OCCO)cc1)CCO experimental_readout=z-score data_value=-0.587
input_smiles=C=CCOC(=O)[C@@]1(Cc2ccccc2)C[C@H]2CO[C@H](c3ccc(OC)cc3)N2C1=O experimental_readout=z-score data_value=-0.311
input_smiles=COCCOC(=O)N1C(=O)[C@@]2(c3cc(C#CCNC(N)=O)ccc31)[C@H](C(N)=O)[C@H]1C(=O)O[C@H](c3ccccc3)[C@H](c3ccccc3)N1[C@@H]2c1ccccc1OCCO experimental_readout=z-score data_value=-0.362
input_smiles=COC(=O)[C@@]1(Cc2ccccc2)[C@H]2c3cc(C(=O)N(C)C)n(Cc4ccc(C)o4)c3C[C@H]2CN1C(=O)c1ccccc1 experimental_readout=z-score data_value=-0.735

###

Assay: optical density shifts of acrAB sulA E. coli – strain DRC41, OD650, 48 h, E. coli filamentation inducer project, primary screen (AID 1152);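 further: E. coli MC1000 strain DRC41 lacking acrAB efflux pump and sulA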
Settings: higher = more signal, called active from +8 up or from −8 down
EXPERIMENTAL_READOUT: z-score

molecule=CCCC=C(CCC)[C@@H](NS(=O)(=O)c1ccc(C(F)(F)F)cc1)c1ccccc1 data_value=-2.49
molecule=CC(C)(C)OC(=O)COc1cccc(C(=O)CCN2CCOCC2)c1 data_value=0.922
molecule="[N-]=[N+]=NCc1ccccc1[C@H]1OC(c2ccc(OCCCO)cc2)=N[C@@]1(Cc1ccccc1N=[N+]=[N-])C(=O)NCC(O)CO (some centres not stated)" data_value=-0.502
molecule=COc1ccc([Si](C)(C)[C@H]2[C@H](CC(=O)N3Cc4ccccc4C[C@H]3CO)O[C@@]3(C(=O)N(Cc4ccc(N5CCOC5=O)cc4)c4ccccc43)[C@@H]2C)cc1 data_value=-0.742
molecule=Cc1ccc(N2C(=O)c3ccccc3[C@@H](C(=O)NCCCN(C)C)[C@@H]2c2ccc(CO)cc2)nc1 data_value=0.0376
molecule=[N-]=[N+]=Nc1ccccc1C[C@@]1(C(N)=O)N=C(c2ccc(OCCCO)cc2)O[C@@H]1c1ccccc1N=[N+]=[N-] data_value=0.587
molecule="O=C(Cc1ccccc1)[C@H]1C2C=CCCC(c3ccccc3)=C2CN1Cc1ccccc1 (some centres not stated)" data_value=2.46
molecule=CCOC(=O)C=Cc1cccc(C)c1O data_value=-0.718
molecule=CCOC(=O)C[C@H]1[C@H](OC(=O)c2ccc(C(=O)c3ccccc3)cc2)[C@@H](NC(=O)C2CCCCC2)c2cc(OCCCO)ccc2N1C(=O)c1ccc2ccccc2n1 data_value=1.94
molecule=COCCOC(=O)N1C(=O)[C@@]2(c3ccccc31)[C@H](C(=O)NC[C@H](O)c1ccccc1)[C@H]1C(=O)O[C@H](c3ccccc3)[C@H](c3ccccc3)N1[C@@H]2c1ccc(O)cc1 data_value=0.503
molecule=COc1ccc(C#Cc2ccc3c(c2)[C@]2(C(=O)N3)[C@H](C(=O)O)[C@H]3C(=O)O[C@H](c4ccccc4)[C@H](c4ccccc4)N3[C@@H]2c2ccc(O)cc2)cc1 data_value=0.384
molecule=CCCC[C@@H](O)C1=C(COc2ccccc2)C[C@H]2C(=O)N(Cc3ccccc3)C(=O)[C@H]2[C@H]1CO data_value=0.232
molecule=CCCNC(=O)[C@@]1(Sc2ccc(C)cc2)CC(=O)N(C2Cc3ccccc3C2)[C@@H]1c1ccc(CO)cc1I data_value=0.815
molecule="O=C1C2C=CC(C(O)c3ccco3)N(Nc3ccccc3F)C2C(=O)N1c1ccccc1 (configuration not stated)" data_value=-1.72
molecule="C=CCC(OC(C)=O)[C@@H]1[C@@H](N(Cc2cc3ccccc3o2)C(=O)Cc2ccc(F)cc2)c2cc(OCCCO)ccc2N1C(=O)Cc1ccc2ccccc2c1 (some centres not stated)" data_value=-1.06
molecule=COC(=O)[C@@]1(Cc2ccc(OC)cc2)[C@H]2c3cc(C(=O)N4CCCC4)n(CCc4c[nH]c5ccc(O)cc45)c3C[C@H]2CN1C(=O)c1ccccc1 data_value=-0.0255
molecule=COc1ccc([Si](C)(C)[C@H]2[C@H](CC(=O)N3CCC[C@H]3CO)O[C@@]3(C(=O)N(Cc4ccc(N5CCOC5=O)cc4)c4ccccc43)[C@@H]2C)cc1 data_value=0.397
molecule="O=C1OCCC=C[C@H]2OC34C=CCN(c5ccc6ccccc6c5)C(=O)[C@H]3N(CCCO)C(=O)[C@@H]4C12 (some centres not stated)" data_value=0.181
molecule=CC(C)NC(=O)[C@@]1(c2ccc([N+](=O)[O-])cc2)CC(=O)N(C2CCCCC2)[C@@H]1c1ccc(CO)cc1 data_value=1.1
molecule="CCCCCCCCCCC(O)C1C=CC2C(=O)N(c3ccccc3)C(=O)C2N1Nc1ccc(C#N)cc1 (configuration not stated)" data_value=-1.08
molecule="CCCCN1CC=CC23O[C@@H]4/C=C\\CCCOC(=O)C4[C@H]2C(=O)N(CCO)[C@@H]3C1=O (some centres not stated)" data_value=1.18
molecule=CN(C)CCCCCCNC(=O)[C@@H]1C[C@@H]2C(=O)N3CCC[C@H]3C(=O)N2[C@@H]1c1cccc(OCCO)c1 data_value=-0.305
molecule=NCCCCCCNC(=O)[C@@H]1C[C@@H]2C(=O)N[C@@H](CCCCN)C(=O)N2[C@@H]1c1ccc(O)cc1 data_value=0.264
molecule=[N-]=[N+]=Nc1ccccc1[C@@H]1OC(c2ccc(OCCCO)cc2)=N[C@]1(Cc1ccccc1)C(=O)N1CCCCC1 data_value=0.227
molecule=COCC(=C=CC[C@H](O)c1ccc(OCCO)cc1)CCO data_value=0.367
molecule=COCCCNC(=O)[C@@]1(CCC(=O)OC(C)(C)C)N=C(c2ccc(OCCCO)cc2)O[C@H]1c1ccccc1N=[N+]=[N-] data_value=1.15
molecule="COc1cc2c(cc1O)C(C1CC1)N(Cc1cccc(OC(F)(F)F)c1)CC2 (configuration not stated)" data_value=-0.933

###

System: Noggin (protein binding on small-molecule microarray)
Test: small molecules binding Noggin protein – biochemical, 635/667 nm fluorescence, primary screen (AID 1095);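 further: score merges 667 nm feature fluorescence with signal to noise over triplicate slides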
Conditions: 635 nm fluorescence, higher = more signal
// F strictly below 0.08 in composite z-score; T otherwise

compound="O=C1OCCC=C[C@H]2OC34C=CCN(Cn5nnc6ccccc65)C(=O)[C@H]3N(CCCO)C(=O)[C@@H]4C12 (stereo not given in full)" category_label=F
compound="[N-]=[N+]=NCc1ccccc1[C@H]1OC(c2ccc(OCCCO)cc2)=N[C@@]1(Cc1ccccc1N=[N+]=[N-])C(=O)NCC(O)CO (stereo not given in full)" category_label=F
compound="C=CCC(OC(C)=O)[C@@H]1[C@@H](N(Cc2cccc3ccccc23)C(=O)Cc2ccc(F)cc2)c2cc(OCCCO)ccc2N1C(=O)c1ccc2ccccc2c1 (stereo not given in full)" category_label=T
compound=CC(C)[Si]1(C(C)C)OCc2cc(C3CC3)nc(-c3ccc(Oc4ccccc4)cc3)c21 category_label=F
compound="COC(=O)C1=CC(CCCO)=CC(c2ccc(CN3CCCC3)cc2)N(Cc2cccc(OC(F)(F)F)c2)C=C1C(=O)OC (stereo not given)" category_label=F

###

Molecular target: Follistatin-related protein 3 (Homo sapiens)
Experiment: compounds binding follistatin-related protein 3 – biochemical, small-molecule microarray, 635 nm fluorescence, primary screen (AID 1105);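 further: score merges emission near 667 nm and signal to noise per printed spot across three slides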
Conditions: FSTL3 binding, higher = more signal
EXPERIMENTAL_READOUT: composite z-score

compound=CCCNC(=O)[C@@]1(C)c2ccccc2C(=O)N(c2ccc(C)cn2)[C@H]1c1ccc(CO)cc1 system="Follistatin-related protein 3 (Homo sapiens)" data_value=-0.223
compound=CC(C)[Si]1(C(C)C)OCc2cc(C3CC3)nc(-c3ccc(Oc4ccccc4)cc3)c21 system="Follistatin-related protein 3 (Homo sapiens)" data_value=-0.816
compound=COc1ccc([Si](C)(C)[C@@H]2[C@@H](CCO)O[C@]3(C(=O)N(Cc4ccccc4)c4ccc(NC(=O)[C@H](C)O)cc43)[C@H]2C)cc1 system="Follistatin-related protein 3 (Homo sapiens)" data_value=1.14
compound=Cc1ccc(S[C@]2(C(=O)NCC(F)(F)F)CC(=O)N(Cc3cc(C(F)(F)F)cc(C(F)(F)F)c3)[C@@H]2c2ccc(CO)cc2)cc1 system="Follistatin-related protein 3 (Homo sapiens)" data_value=-0.861
compound=C=CC[C@]1(C(=O)N2CCCCC2)N=C(c2ccc(OCCCO)cc2)O[C@H]1c1ccccc1CN=[N+]=[N-] system="Follistatin-related protein 3 (Homo sapiens)" data_value=0.922
compound=C#Cc1cc2ccccc2oc1=O system="Follistatin-related protein 3 (Homo sapiens)" data_value=-2.4
compound="COC(=O)C1=CC(CCCO)=CC(c2cccs2)N(Cc2cccc(OC(F)(F)F)c2)C=C1C(=O)OC (stereo unspecified)" system="Follistatin-related protein 3 (Homo sapiens)" data_value=0.989
compound="COC(=O)C1=CC(CCCO)=CC(c2cccs2)N(C)C=C1C(=O)OC (stereo unspecified)" system="Follistatin-related protein 3 (Homo sapiens)" data_value=0.0507
compound="CC(CO)N1C(=O)[C@]2(C)C3C(=O)OCCC/C=C\\[C@H]3OC23C=CCN(c2ccc(Cl)cc2)C(=O)[C@@H]13 (stereo partly specified)" system="Follistatin-related protein 3 (Homo sapiens)" data_value=-0.798
compound=COC(=O)[C@@]1(Cc2ccc(OC)cc2)[C@H]2c3cc(C(=O)N4CCCC4)n(CCc4c[nH]c5ccc(O)cc45)c3C[C@H]2CN1C(=O)c1ccccc1 system="Follistatin-related protein 3 (Homo sapiens)" data_value=1.13
compound=C=CC[C@@]1(C(=O)NCCCOC)N=C(c2ccc(OCCCO)cc2)O[C@@H]1c1ccccc1N=[N+]=[N-] system="Follistatin-related protein 3 (Homo sapiens)" data_value=0.45
compound=COC(=O)C(CC#Cc1ccc2c(c1)[C@]1(C(=O)N2)[C@H](c2ccc(O)cc2)N2[C@H](c3ccccc3)[C@H](c3ccccc3)OC(=O)[C@H]2[C@@H]1C(=O)NC[C@H](O)c1ccccc1)C(=O)OC system="Follistatin-related protein 3 (Homo sapiens)" data_value=0.523
compound=Cc1ccc(F)cc1S(=O)(=O)N[C@@H]1CCN(Cc2ccc(Br)cc2)C1 system="Follistatin-related protein 3 (Homo sapiens)" data_value=0.752
compound=COCCOC(=O)N1C(=O)[C@@]2(c3cc(C#CC4(O)CCCCCC4)ccc31)[C@H](C(=O)Nc1nc3ccccc3s1)[C@H]1C(=O)O[C@H](c3ccccc3)[C@H](c3ccccc3)N1[C@@H]2c1ccc(O)cc1 system="Follistatin-related protein 3 (Homo sapiens)" data_value=1.3
compound=COc1ccc(CCNC(=O)[C@@]2(Sc3ccc(C)cc3)CC(=O)N(Cc3ccccc3C(F)(F)F)[C@@H]2c2ccc(CO)cc2I)cc1 system="Follistatin-related protein 3 (Homo sapiens)" data_value=-1.64
compound=COc1ccc([Si](C)(C)[C@@H]2[C@@H](CCO)O[C@]3(C(=O)N(Cc4ccccc4)c4ccc(N5C(=O)c6cccc7cccc5c67)cc43)[C@H]2C)cc1 system="Follistatin-related protein 3 (Homo sapiens)" data_value=-0.448
